Origin of the recorded values: patent US9493474B2

Experimental Target: Kir1.1 (ROMK1) (Homo sapiens (Human))
Sequence (P48048 whole entry, species assumed): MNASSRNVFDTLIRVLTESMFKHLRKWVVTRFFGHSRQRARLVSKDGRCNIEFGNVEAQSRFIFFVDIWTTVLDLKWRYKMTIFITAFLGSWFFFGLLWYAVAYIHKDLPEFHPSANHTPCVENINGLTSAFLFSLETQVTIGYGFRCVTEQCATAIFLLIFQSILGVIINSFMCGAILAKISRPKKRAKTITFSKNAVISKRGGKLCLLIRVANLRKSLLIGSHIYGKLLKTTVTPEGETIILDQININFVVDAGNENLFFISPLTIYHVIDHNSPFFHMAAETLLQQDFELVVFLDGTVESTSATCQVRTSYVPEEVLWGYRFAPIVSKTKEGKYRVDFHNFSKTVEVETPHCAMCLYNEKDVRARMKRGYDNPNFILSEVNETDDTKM
Test Details: Electrophysiology Assay (whole cell voltage clamp, IonWorks Quattro)
Applied Conditions: Chinese hamster ovary cells stably expressing Kir1.1; block at voltage step to 0 mV, 6 minutes compound incubation; read-out: EP Assay IC50
pIC50: −log10 of the molar value.
Lab note: anything with pIC50 at or over 7 counts as y; the rest go in n.

Cc1c([C@@H](O)CN2CCC3CN(CC(O)c4ccc(C#N)cn4)CC32)ccc2c1COC2=O (single isomer, unassigned) [Example 7A] :: y

QUERY: Determine whether this molecule has pIC50 no lower than 7: Cc1c([C@@H](O)CN2CCCC3(CCCN(C[C@H](O)c4ccc5c(c4C)COC5=O)C3)C2)ccc2c1COC2=O [Example 6]
RESULT: n

QUERY: Determine whether this molecule has pIC50 no lower than 7: Cc1c([C@@H](O)CN2C(C)CC3CN(CC(O)c4ccc(C#N)cn4)CC32)ccc2c1COC2=O (single isomer, unassigned) [Example 11B]
RESULT: y

QUERY: Determine whether this molecule has pIC50 no lower than 7: Cc1c([C@@H](O)CN2CC3CCN(C(=O)c4ccc(-n5cnnn5)nc4)CC3C2)ccc2c1COC2=O (stereo partly shown) [Example 15]
RESULT: n

QUERY: Determine whether this molecule has pIC50 no lower than 7: Cc1c([C@@H](O)CN2CC3CN(CC(O)c4ccc(C#N)cn4)C3C2)ccc2c1COC2=O (single isomer, unassigned) [Example 23]
RESULT: n

QUERY: Determine whether this molecule has pIC50 no lower than 7: Cc1c([C@@H](O)CN2CCC3CN(C(=O)c4ccc(-n5cnnn5)cn4)CC32)ccc2c1COC2=O (stereo partly shown) [Example 16]
RESULT: n

###

Would you mind telling me the reported pIC50 of each entry?
Experimental Target: hROMK (hKir1.1) (Homo sapiens (Human), UniProt P48048)
Sequence (P48048 whole entry): as the sequence (P48048 whole entry, species assumed) above
Test Details: Thallium Flux Assay
Applied Conditions: HEK293 cells stably expressing hROMK (hKir1.1); FLIPR-Tetra, 30 min compound incubation
Give bare numbers, as −log10 of the molar value.

Worked set:
Cc1c([C@@H](O)CN2CCCC3(CCCN(C[C@H](O)c4ccc5c(c4C)COC5=O)C3)C2)ccc2c1COC2=O :: 6.45
Cc1c([C@@H](O)CN2CCC3(CCCN(C(=O)c4ccc(-n5cnnn5)nc4)C3)C2)ccc2c1COC2=O (stereo partly shown) :: 6.62
Cc1c([C@@H](O)CN2CCC3CN(CC(O)c4ccc(C#N)cn4)CC32)ccc2c1COC2=O (single isomer, unassigned) [Example 7A] :: 6.82
Cc1c([C@@H](O)CN2CCC3CN(S(=O)(=O)c4ccc(-n5cnnn5)cc4)CC32)ccc2c1COC2=O (stereo partly shown) :: 5.98
Cc1c([C@@H](O)CN2CC3CCN(C(=O)c4ccc(C#N)cn4)CC3C2)ccc2c1COC2=O (stereo partly shown) :: 6.06
Cc1c([C@@H](O)CN2CCC3CN(C(=O)c4ccc(-n5cnnn5)cn4)CC32)ccc2c1COC2=O (stereo partly shown) :: 6.22

Would you be so kind as to report pIC50 for each listed record?
1. Cc1c([C@@H](O)CN2C(C)CC3CN(CC(O)c4ccc(C#N)cn4)CC32)ccc2c1COC2=O (single isomer, unassigned) [Example 11B]
2. Cc1c([C@@H](O)CN2CCC3CN(S(=O)(=O)c4ccc(C#N)cc4)CC32)ccc2c1COC2=O (single isomer, unassigned)
3. Cc1cc(S(=O)(=O)N2CCCC23CCN(C[C@H](O)c2ccc4c(c2C)COC4=O)C3)ccc1-n1cnnn1 (single isomer, unassigned) [Example 18A]
4. N#Cc1ccc(S(=O)(=O)N2CCC3CN(C[C@H](O)c4ccc5c(c4)COC5=O)CC32)cc1 (stereo partly shown)
5. Cc1c([C@@H](O)CN2CC3CN(CC(O)c4ccc(C#N)cn4)C3C2)ccc2c1COC2=O (single isomer, unassigned) [Example 22]
6. Cc1c([C@@H](O)CN2C(C)CC3CN(CC(O)c4ccc(C#N)cn4)CC32)ccc2c1COC2=O (single isomer, unassigned) [Example 11A]
7. Cc1c([C@@H](O)CN2CC3CN(CC(O)c4ccc(C#N)cn4)C3C2)ccc2c1COC2=O (single isomer, unassigned) [Example 23]
8. Cc1c([C@@H](O)CN2CCCC3(CCN(C[C@H](O)c4ccc5c(c4C)COC5=O)C3)C2)ccc2c1COC2=O (stereo partly shown)

RESULT:
7.04
6.18
6.86
6.63
6.04
7.03
6.27
6.56

Would you be so kind as to report pIC50 for each listed record?
1. Cc1c([C@@H](O)CN2CCC3(CCCN3C[C@H](O)c3ccc4c(c3C)COC4=O)C2)ccc2c1COC2=O (single isomer, unassigned) [Example 10B]
2. Cc1c([C@@H](O)CN2CC3CCN(C(=O)c4ccc(-n5cnnn5)nc4)CC3C2)ccc2c1COC2=O (stereo partly shown)
3. Cc1c([C@@H](O)CN2CCC3CN(CC(O)c4ccc(C#N)cn4)CC32)ccc2c1COC2=O (single isomer, unassigned) [Example 7B]

RESULT:
7.12
6.99
6.25

Would you be so kind as to report pIC50 for each listed record?
1. Cc1c([C@@H](O)CN2CCCC3(CCCN3C[C@H](O)c3ccc4c(c3C)COC4=O)C2)ccc2c1COC2=O (stereo partly shown)
2. Cc1cc(S(=O)(=O)N2CCCC23CCN(C[C@H](O)c2ccc4c(c2C)COC4=O)C3)ccc1-n1cnnn1 (single isomer, unassigned) [Example 18B]

RESULT:
1: 6.13; 2: 6.53

###

Experimental Target: Kir1.1 (ROMK1) (Homo sapiens (Human))
Test Details: Electrophysiology Assay (whole cell voltage clamp, IonWorks Quattro)
Applied Conditions: Chinese hamster ovary cells stably expressing Kir1.1; block at voltage step to 0 mV, 6 minutes compound incubation; read-out: EP Assay IC50
Parameter: IC50

Worked set:
Cc1cc(S(=O)(=O)N2CCCC23CCN(C[C@H](O)c2ccc4c(c2C)COC4=O)C3)ccc1-n1cnnn1 (single isomer, unassigned) [Example 18B] :: 125 nM
Cc1cc(S(=O)(=O)N2CCCC23CCN(C[C@H](O)c2ccc4c(c2C)COC4=O)C3)ccc1-n1cnnn1 (single isomer, unassigned) [Example 18A] :: 79 nM
Cc1c([C@@H](O)CN2CCC3CN(CC(O)c4ccc(C#N)cn4)CC32)ccc2c1COC2=O (single isomer, unassigned) [Example 7B] :: 2400 nM
Cc1c([C@@H](O)CN2CCC3(CCCN(C(=O)c4ccc(-n5cnnn5)nc4)C3)C2)ccc2c1COC2=O (stereo partly shown) [Example 14] :: 108 nM
Cc1c([C@@H](O)CN2CCCC3(CCN(C[C@H](O)c4ccc5c(c4C)COC5=O)C3)C2)ccc2c1COC2=O (stereo partly shown) [Example 1] :: 117 nM

Would you be so kind as to report IC50 for each listed record?
1. Cc1c([C@@H](O)CN2CCCC3(CCCN3C[C@H](O)c3ccc4c(c3C)COC4=O)C2)ccc2c1COC2=O (stereo partly shown) [Example 5]
2. Cc1c([C@@H](O)CN2CCC3(CCCN3C[C@H](O)c3ccc4c(c3C)COC4=O)C2)ccc2c1COC2=O (single isomer, unassigned) [Example 10B]

RESULT:
1: 348 nM; 2: 184 nM
